Just for reference, paper PMC5042352 is where these values come from.

Freeze–thaw Dev. (%) for assorted compounds
# assayName: Stability of the analytes in human plasma at QC levels
# Format: in vitro ADME
# settings: high QC; four cycles, −40 °C; human plasma; n = 5
Hi! Could you send only the number? It should be in %, unit omitted.

Some solved cases for reference:
1) C[C@H]1C[C@H]2[C@@H]3CCC4=CC(=O)C=C[C@]4(C)[C@@]3(F)[C@@H](O)C[C@]2(C)[C@@]1(O)C(=O)COP(=O)([O-])[O-].[Na+].[Na+] [BSP, betamethasone sodium phosphate] : −2.50
2) C[C@H]1C[C@H]2[C@@H]3CCC4=CC(=O)C=C[C@]4(C)[C@@]3(F)[C@@H](O)C[C@]2(C)[C@@]1(O)C(=O)CO [BOH, betamethasone] : 5.54
3) CCC(=O)OCC(=O)[C@@]1(O)[C@@H](C)C[C@H]2[C@@H]3CCC4=CC(=O)C=C[C@]4(C)[C@@]3(F)[C@@H](O)C[C@@]21C [B21P, betamethasone 21-monopropionate] : −2.48
4) CCC(=O)OCC(=O)[C@@]1(OC(=O)CC)[C@@H](C)C[C@H]2[C@@H]3CCC4=CC(=O)C=C[C@]4(C)[C@@]3(F)[C@@H](O)C[C@@]21C [BDP, betamethasone dipropionate] : 0.68

Next:
**Query** // Freeze–thaw Dev. (%) lookup, key: CCC(=O)O[C@]1(C(=O)CO)[C@@H](C)C[C@H]2[C@@H]3CCC4=CC(=O)C=C[C@]4(C)[C@@]3(F)[C@@H](O)C[C@@]21C [B17P, betamethasone 17-monopropionate]
**Result** 2.2
